# credit: paper PMC4072508

# TARGET_OR_SYSTEM: T1, Bfl-1, Q16548
# T1 chain: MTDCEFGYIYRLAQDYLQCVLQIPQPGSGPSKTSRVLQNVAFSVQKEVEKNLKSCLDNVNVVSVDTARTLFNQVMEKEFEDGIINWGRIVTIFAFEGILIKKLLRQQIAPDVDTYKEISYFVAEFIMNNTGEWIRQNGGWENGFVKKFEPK
# EXPERIMENT_SUMMARY: fluorescence polarisation, direct titration of receptor into 10 nM labelled peptide
QUANTITY_KIND: Kd

Query: Need Kd of FTGNNTAVQELKRVSEQFTATFRRKA [TUBB4Q] , thanks.
Response: > 4.67 µM

Query: Need Kd of FSKREKLVEILRNIGDERTMVFVETK [DDX4] , thanks.
Response: > 3.37 µM

Query: Need Kd of NATHEEVVHLLRNAGDEVTITVEYLR [SNTG2] , thanks.
Response: > 4.07 µM

Query: Need Kd of FERVEQMCIQIKEVGDRVNYIKRSLQ [TRPM7] , thanks.
Response: 1.9 µM

Query: Need Kd of RVCPYYLSRNLKQQADIIFMPYNYLL [RTEL1] , thanks.
Response: > 4 µM

Query: Need Kd of FVGYNSTGAELRHWSDMLANPRRPIA [SYT1] , thanks.
Response: > 3.37 µM

Query: Need Kd of AIILCNVCGNLCTDCDRFLHLHRRTK [MYCBP2] , thanks.
Response: > 3.37 µM

Query: Need Kd of SKFVILSAHKLVFIGDTLSRQAKAAD [BCAR1] , thanks.
Response: 4.69 µM

Query: Need Kd of TDENKKVGLALKDLAKQYSDRLECCE [NUB1] , thanks.
Response: > 4 µM

Query: Need Kd of RYPILENPEILRKTADDFLNRIALTD [CCNH] , thanks.
Response: > 9.62 µM

Query: Need Kd of DAIIQMIVELLKRVGDQWEEEQSLAS [c6orf222] , thanks.
Response: 0.001 µM

Query: Need Kd of KSRLVQQSKALKELADELQERCQRPA [TRIM58] , thanks.
Response: > 4.67 µM

Query: Need Kd of TRELQELARKLQELADASENLLTENT [TXNDC11] , thanks.
Response: > 10 µM

Query: Need Kd of EVLAGPLAQRLSHIAEDVGRLVKKSR [ARHGAP4] , thanks.
Response: > 5.59 µM
